Test system: HCC-2998 colon
MEASUREMENT NOTES: NCI-60 one-dose screen, 48 h (100 = growth as untreated, 0 = no growth, -100 = all killed)
EXPERIMENTAL PARAMETERS: 10 µM
This is part of a sample that, as a whole, favours compounds with a hit. Of some 83,000 tested, about 20% had one in any assay.
# growth per record follows
Quick reminder: number only, in %, skip the unit.

Recorded results for 5 compounds are shown here.
[[record]]
compound = "CN1CCN(c2ccc(Nc3nc(NCCNC(=O)c4ccc(C(F)(F)F)cc4)c4sccc4n3)cc2)CC1"
attribute_measured = "growth"
reported_result = -22.5

[[record]]
compound = "COC1CC(Cn2cc(COc3ccc4ccc(=O)oc4c3)nn2)C(OCc2ccccc2)C(OCc2ccccc2)C1OCc1ccccc1 (stereo not drawn)"
attribute_measured = "growth"
reported_result = 121

[[record]]
compound = "O=c1nc(-c2ccccc2)cc(-c2cc3ccccc3nc2Cl)[nH]1"
attribute_measured = "growth"
reported_result = 44.9

[[record]]
compound = "O=C1Nc2cc(Cl)ccc2/C1=C/c1cccc(OCc2ccc(Br)cc2F)c1"
attribute_measured = "growth"
reported_result = 26

[[record]]
compound = "O=C(NO)c1ccc(CNc2nc(-c3ccccc3)c3ccccc3n2)cc1"
attribute_measured = "growth"
reported_result = -63.9


INPUT: Suppose we examine the compound CCOC(=O)CNC(=O)CN(Cc1ccccc1)C(=O)[C@@]1(C)CCC[C@]2(C)[C@H]3C[C@H]4C(C(C)C)=C[C@]3(CC[C@H]21)[C@@H]1C(=O)OC(=O)[C@@H]14 ; what growth value has been reported?
OUTPUT: 69.6

INPUT: I'd like to know its growth. The compound in question is COc1ccc(/C=N/N=C(\C)c2ccc3c(c2)Nc2ccccc2S3)cc1O
OUTPUT: 51.2

INPUT: Query: growth; subject: CN1CCN(c2ccc(Nc3nc(N4CCN(S(=O)(=O)c5ccc(Cl)cc5)CC4)c4sccc4n3)cc2)CC1
OUTPUT: -8.56

---

Test system: SK-MEL-5 melanoma
MEASUREMENT NOTES: NCI-60 one-dose screen, 48 h (100 = growth as untreated, 0 = no growth, -100 = all killed)
EXPERIMENTAL PARAMETERS: 10 µM
The panel holds about 83,000 compounds, 20% with a hit somewhere; the sample as a whole holds those more often.
ATTRIBUTE MEASURED: growth (%)
Express the result in % but write the number alone.

See these solved cases before continuing.
[[record]]
compound = "CN1CCN(c2ccc(Nc3nc(NCCCNC(=O)C4CCCCC4)c4sccc4n3)cc2)CC1"
measured_on = "SK-MEL-5 melanoma"
reported_result = 22.3

[[record]]
compound = "CC(=O)Nc1ccc(-c2cn(-c3cccc(C(=O)Nc4cc(C(F)(F)F)cc(C(F)(F)F)c4)c3)nn2)cn1"
measured_on = "SK-MEL-5 melanoma"
reported_result = -38.9

[[record]]
compound = "O=C(N/N=C/c1ccc(-c2cccc([N+](=O)[O-])c2)o1)c1[nH]c2ccc(Br)cc2c1-c1ccccc1"
measured_on = "SK-MEL-5 melanoma"
reported_result = -20.7

[[record]]
compound = "C/C(=N\\NC(N)=S)c1ccc(Nc2nc(SC(C)C)nc(-c3ccccc3)c2C#N)cc1"
measured_on = "SK-MEL-5 melanoma"
reported_result = 75.5

[[record]]
compound = "O=C1Nc2cc(Cl)ccc2/C1=C/c1cccc(OCc2ccc(Br)cc2F)c1"
measured_on = "SK-MEL-5 melanoma"
reported_result = -6.52


Now for the compound whose growth we want.
INPUT: Entry CN1C(=O)N(C)C2SC(N/N=C/c3cccs3)=NC21 (centres undefined) : reported growth = ?
OUTPUT: 8.57

---

System: NCI-H460 lung
MEASUREMENT NOTES: NCI-60 one-dose screen, 48 h
EXPERIMENTAL PARAMETERS: 10 µM
Method: Growth inhibition of the NCI-H460 human Non-Small Cell Lung tumor cell line is measured as a screen for anti-cancer activity. Cells are grown in 96 well plates and exposed to the test compound for 48 hours. Compounds are tested at a single concentration, which is 10^-5 M for most compounds. The reported endpoint is percent growth (GI% or GIPRCNT), where numbers from 0 - 100% represent growth inhibition, and numbers from -100% - 0 represent cell death. […]
About 83,000 compounds went through this panel and 20% of them were active in at least one assay; those are over-represented in the sample as a whole. Calls of active or inactive are those of the source. The calls were made as follows: active = growth percent below 10; inactive = the rest.
Respond with a class label; see T = active, F = inactive

[[record]]
compound = "CC1=N/C(=C\\c2ccc(N(C)C)cc2)C(=O)N1CCc1ccc(S(N)(=O)=O)cc1"
group = "F"

[[record]]
compound = "O=C(Cn1nc(-c2ccccc2)ccc1=O)NNC(=S)NC1CCCCC1"
group = "F"

[[record]]
compound = "C/C(=C\\c1ccc(O)cc1O)c1ccc2ccc(O)cc2[o+]1"
group = "F"


INPUT: // return assay outcome for O=c1oc2ccc(-c3ccc(F)cc3F)cc2c(=O)n1-c1ccc(F)c(Cl)c1
OUTPUT: T

INPUT: Which outcome did this test record for the compound COc1ccc(NC(=O)Nc2ccc(OCC(=O)N=Nc3c(O)[nH]c4ccc([N+](=O)[O-])cc34)cc2)cc1 ?
OUTPUT: F

---

Tested on: SF-295 CNS
MEASUREMENT NOTES: NCI-60 one-dose screen, 48 h (100 = growth as untreated, 0 = no growth, -100 = all killed)
EXPERIMENTAL PARAMETERS: 10 µM
The panel holds about 83,000 compounds, 20% with a hit somewhere; the sample as a whole holds those more often.
In this section, each of the molecules is paired with its reported growth.
Dear colleague, please return just the value in %, with no unit written.

# count of solved cases: 10
[[record]]
molecule = "CC1CC(c2ccc(N(C)C)cc2)=NN1c1nc(O)c(C2=c3cc(Br)ccc3=NC2=O)s1 (stereo unspecified)"
measured_on = "SF-295 CNS"
attribute_measured = "growth"
reported_result = 68.9

[[record]]
molecule = "COc1ccc(C(C)=C(c2ccc(OCCCN(C)C)cc2)c2ccc(OCCCN(C)C)cc2)cc1"
measured_on = "SF-295 CNS"
attribute_measured = "growth"
reported_result = -85.2

[[record]]
molecule = "O=c1[nH]c2ccc(Cl)cc2cc1CSc1ccc(Nc2nccc(-c3ccc(Cl)cc3)n2)cc1"
measured_on = "SF-295 CNS"
attribute_measured = "growth"
reported_result = 105

[[record]]
molecule = "O=C(N/N=C/c1ccc(B(O)O)o1)c1[nH]c2ccc(Br)cc2c1-c1ccccc1"
measured_on = "SF-295 CNS"
attribute_measured = "growth"
reported_result = -8.66

[[record]]
molecule = "C#Cc1ccc(S(=O)(=O)Nc2cccc(-c3csc(NC(C)=O)n3)c2)cc1"
measured_on = "SF-295 CNS"
attribute_measured = "growth"
reported_result = 66.1

[[record]]
molecule = "Cc1cc(=O)oc2cc(OCCCCOc3ccc(/C=C/C(=O)Nc4ccccc4[N+](=O)[O-])cc3)ccc12"
measured_on = "SF-295 CNS"
attribute_measured = "growth"
reported_result = 99.8

[[record]]
molecule = "Cc1cc(C)nc(NS(=O)(=O)c2ccc(N/C(N)=N/c3nccc(-c4ccccc4)n3)cc2)n1"
measured_on = "SF-295 CNS"
attribute_measured = "growth"
reported_result = 52.2

[[record]]
molecule = "CNC(=O)c1cccc(N2CCc3c2ccc(NC(=O)Nc2ccc(N4CCN(C)CC4)c(C(F)(F)F)c2)c3F)c1"
measured_on = "SF-295 CNS"
attribute_measured = "growth"
reported_result = -97.2

[[record]]
molecule = "C/C(=C\\CC/C=C(\\C)CC/C=C(\\C)CC[C@@H](O)C(C)(C)O)CC/C=C(\\C)CC[C@@H](O)C(C)(C)O"
measured_on = "SF-295 CNS"
attribute_measured = "growth"
reported_result = 9.52

[[record]]
molecule = "O=c1[nH]c2ccccc2cc1CSc1ccc(Nc2nccc(-c3ccc4ccccc4c3)n2)cc1"
measured_on = "SF-295 CNS"
attribute_measured = "growth"
reported_result = 89.6


INPUT: Lab request: please report growth under test system SF-295 CNS for Cc1ccc(NC(=O)c2ccc(-n3c(=O)[nH]c4ccccc4c3=O)cc2)cc1
OUTPUT: 91.9

INPUT: What reported growth corresponds to COc1ccc(-c2cc(C(=O)N=Nc3c(O)[nH]c4ccc(Br)cc34)c3ccccc3n2)cc1 on SF-295 CNS?
OUTPUT: 35.3

---

Tested on: HOP-62 NSCLC
MEASUREMENT NOTES: NCI-60 one-dose screen, 48 h (100 = growth as untreated, 0 = no growth, -100 = all killed)
EXPERIMENTAL PARAMETERS: 10 µM
About 83,000 compounds went through this panel and 20% of them were active in at least one assay; those are over-represented in the sample as a whole. Activity calls are given as the source filed them. How the source made its calls: active means growth percent below 10; inactive means the rest.
ATTRIBUTE MEASURED: growth

INPUT: Requested field: growth. Item: COc1ccc(C(=O)/C=C/c2ccc(Cl)c(C(F)(F)F)c2)cc1S(N)(=O)=O
OUTPUT: -84% (active)

INPUT: // growth lookup, key: Cc1ccc(F)cc1N/C=c1\s/c(=C(\C#N)C(=O)Nc2ccccc2)n(-c2ccccc2)c1=O
OUTPUT: 51.8% (inactive)

INPUT: Give its growth value. Item: [2H]C([2H])([2H])Oc1ccc2ncc(C#Cc3cncc(C(=O)Nc4ccc(CN5CCN(C)CC5)c(C(F)(F)F)c4)c3)n2n1
OUTPUT: -41% (active)

INPUT: Consider the compound shown here: COc1ccc(C(=O)CSc2nnc(-c3c[nH]c4ccccc34)n2-c2ccccc2)cc1 What is its recorded growth?
OUTPUT: 8.82% (active)

INPUT: Quick check: growth of Cc1cc(C)nc(SCC(=O)Nc2ccc(S(N)(=O)=O)cc2)n1 ?
OUTPUT: 108% (inactive)

INPUT: Could you tell me which growth is on file for CC[C@@]1(O)C(=O)OCc2c1cc1n(c2=O)Cc2c-1nc1cc(F)c(C)c3c1c2[C@@H](N)CC3 ?
OUTPUT: -31.7% (active)

INPUT: Field request: growth | item: O=C(CSc1nnc(-c2ccc3nc(-c4ccccc4)[nH]c3c2)o1)Nc1ccc(Br)cc1
OUTPUT: 92.2% (inactive)

INPUT: Which value of growth has been reported for COc1ccc(Nc2nc(N)n(Cc3cccc(Br)c3)n2)cc1 in the records?
OUTPUT: 35.1% (inactive)

INPUT: # get_value(readout='growth', item= O=C(CSc1nnc(-c2c[nH]c3ccccc23)n1-c1ccccc1)c1ccc(Br)cc1 )
OUTPUT: 73.6% (inactive)

INPUT: Return reported growth; argument: CCCn1c(=O)c2[nH]c(-c3ccc(OCc4nc5ccc(F)cc5[nH]4)cc3)nc2n(CCC)c1=O
OUTPUT: -19.4% (active)

INPUT: // query growth value for entry CCCn1c(=O)c2[nH]c(-c3ccc(OCc4nc5ccc(C)cc5[nH]4)cc3)nc2n(CCC)c1=O
OUTPUT: -17.3% (active)

INPUT: Which growth is listed for Cc1ccc(S(=O)(=O)c2nc(-c3ccccc3)oc2S(=O)(=O)CC(=O)N2CCCC2)cc1 ?
OUTPUT: 78.3% (inactive)

INPUT: Can you share its growth? I mean this compound: CN1C(=O)N(C)C2SC(N/N=C/C=C/c3ccccc3)=NC21 (stereo not drawn)
OUTPUT: 85.9% (inactive)

INPUT: Reported growth for O=C(Nc1cccc(C(F)(F)F)c1)c1cncc(C#Cc2cnc3cccnn23)c1 : what is it?
OUTPUT: 33.7% (inactive)
